- TARGET_SYSTEM: human MET ECD mutant H (mutations 2, 4) (human) (UniProt P08581)
- PROTOCOL_DETAILS: ELISA, MET ECD in solid phase, mAb 0-50 nM
OBSERVATION_TYPE: % binding (EMAX) compared to WT MET (% WT MET ECD)
One number for each entry, in % WT MET ECD.

Problem: # % binding (EMAX) compared to WT MET lookup, item 71C3 chimeric llama-human IgG1 mAb (antibody, V domains shown, llama VH on human IgG1 CH1-CH2-CH3, llama VL on human lambda CL) VH: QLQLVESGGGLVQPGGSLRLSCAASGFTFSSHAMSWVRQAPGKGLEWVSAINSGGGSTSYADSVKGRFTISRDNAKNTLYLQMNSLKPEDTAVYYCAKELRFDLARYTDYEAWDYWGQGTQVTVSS VL: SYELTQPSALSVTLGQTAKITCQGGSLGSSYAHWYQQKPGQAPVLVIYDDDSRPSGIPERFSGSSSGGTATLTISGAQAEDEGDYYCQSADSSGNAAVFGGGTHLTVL
Solution: 61.6
